Conditions: in acetone, 288.15 K
readout.type: solubility (mole fraction)
API doc: respond with a numeric literal and nothing else, no unit.

Ask | Reported solubility (mole fraction) for "O=C1NC(=O)c2cc([N+](=O)[O-])ccc21" : what is it?
Reply | 0.023

---

Settings: in acetonitrile, 313.15 K
readout.type: solubility (mole fraction)
API doc: respond with a numeric literal and nothing else, no unit.

Ask | Reported solubility (mole fraction) for "O=C1NC(=O)c2cc([N+](=O)[O-])ccc21" : what is it?
Reply | 0.00822

---

Conditions: in ethyl acetate, 318.15 K
readout.type: solubility (mole fraction)
API doc: respond with a numeric literal and nothing else, no unit.

Ask | Reported solubility (mole fraction) for "O=C1NC(=O)c2cc([N+](=O)[O-])ccc21" : what is it?
Reply | 0.0243

---

Settings: in DMF, 305.65 K
readout.type: solubility (mole fraction)
API doc: respond with a numeric literal and nothing else, no unit.

Ask | Reported solubility (mole fraction) for "O=C1NC(=O)c2cc([N+](=O)[O-])ccc21" : what is it?
Reply | 0.0976

---

Settings: in ethyl acetate, 298.15 K
readout.type: solubility (mole fraction)
API doc: respond with a numeric literal and nothing else, no unit.

Ask | Reported solubility (mole fraction) for "O=C1NC(=O)c2cc([N+](=O)[O-])ccc21" : what is it?
Reply | 0.0163

---

Settings: in DMF, 298.15 K
readout.type: solubility (mole fraction)
API doc: respond with a numeric literal and nothing else, no unit.

Ask | Reported solubility (mole fraction) for "O=C1NC(=O)c2cc([N+](=O)[O-])ccc21" : what is it?
Reply | 0.0789

---

Conditions: in acetone, 323.15 K
readout.type: solubility (mole fraction)

Ask | Reported solubility (mole fraction) for "O=C1NC(=O)c2cc([N+](=O)[O-])ccc21" : what is it?
Reply | 0.0392

---

Settings: in ethanol, 288.15 K
readout.type: solubility (mole fraction)
API doc: respond with a numeric literal and nothing else, no unit.

Ask | Reported solubility (mole fraction) for "O=C1NC(=O)c2cc([N+](=O)[O-])ccc21" : what is it?
Reply | 0.00137

---

Details: in cyclohexanone, 303.15 K
readout.type: solubility (mole fraction)
API doc: respond with a numeric literal and nothing else, no unit.

Ask | Reported solubility (mole fraction) for "O=C1NC(=O)c2cc([N+](=O)[O-])ccc21" : what is it?
Reply | 0.0506

---

Settings: in 2-butanone, 298.15 K
readout.type: solubility (mole fraction)
API doc: respond with a numeric literal and nothing else, no unit.

Ask | Reported solubility (mole fraction) for "O=C1NC(=O)c2cc([N+](=O)[O-])ccc21" : what is it?
Reply | 0.0256

---

Conditions: in acetone, 308.15 K
readout.type: solubility (mole fraction)
API doc: respond with a numeric literal and nothing else, no unit.

Ask | Reported solubility (mole fraction) for "O=C1NC(=O)c2cc([N+](=O)[O-])ccc21" : what is it?
Reply | 0.0317

---

Details: in chloroform, 315.65 K
readout.type: solubility (mole fraction)

Ask | Reported solubility (mole fraction) for "O=C1NC(=O)c2cc([N+](=O)[O-])ccc21" : what is it?
Reply | 0.00169

---

Conditions: in benzyl alcohol, 273.15 K
readout.type: solubility (mole fraction)

Ask | Reported solubility (mole fraction) for "O=C1NC(=O)c2cc([N+](=O)[O-])ccc21" : what is it?
Reply | 0.0134

Source listed as BigSolDB 2.1.
